Test system: Staphylococcus aureus
Assay: Antibacterial activity against Staphylococcus aureus at 100 ug/ml by disk diffusion method
Assay type: functional
Conditions: read-out: IZ
Measured Endpoint: zone of inhibition at 100 µg/mL (mm)
Answer format: numeric, mm implied, no suffix.

Molecule | Readout Value
Nc1nc(N)nc(N/N=C/c2ccc(C=O)cc2)n1 | 9

### Prompt What measured zone of inhibition at 100 µg/mL goes with CNc1nc(N/N=C/c2ccc(C=O)cc2)nc(N(C)C)n1 ?
### Response 10

### Prompt What measured zone of inhibition at 100 µg/mL goes with O=C(O)c1cn(C2CC2)c2cc(N3CCNCC3)c(F)cc2c1=O [CIPROFLOXACIN] ?
### Response 22

### Prompt What measured zone of inhibition at 100 µg/mL goes with CNc1nc(N)nc(N/N=C/c2ccc(C=O)cc2)n1 ?
### Response 9

### Prompt What measured zone of inhibition at 100 µg/mL goes with CN(C)c1nc(N/N=C/c2ccc(C=O)cc2)nc(N(C)C)n1 ?
### Response 9

### Prompt What measured zone of inhibition at 100 µg/mL goes with CNc1nc(NC)nc(N/N=C/c2ccc(C=O)cc2)n1 ?
### Response 11
